Below are pIC50 values for BTK (Homo sapiens, UniProt Q06187) collected from several publications.
pIC50: −log10 of the molar value.

Previously resolved entries follow.
Specify pIC50 for NC(=O)c1nnc2c(-c3ccc4nc(Nc5ccccc5)[nH]c4c3)cccc2c1N and stop. 7.00

Determine from records and report pIC50 for C=CC(=O)N1C[C@H]2[C@@H]([C@H]1c1nc(-c3ccc(C(=O)Nc4cc(Cl)ccn4)cc3)c3c(N)nccn13)C2(C)C 8.85

Indicate its recorded pIC50; the molecule in question is C[C@@H]1C[C@@H](CNC(=O)c2cn(C(C)(C)C)nn2)CCN1c1nc(-c2cnn(C)c2)cn2nccc12 (single isomer, unassigned) 8.00 to 9.00

Give the value of pIC50 reported for the following: Cn1cc(-c2cn3nccc3c(-c3ccc(CNC(=O)c4noc(C(C)(C)CF)n4)cc3)n2)cn1 > 9.00

More entries:
Using the record for CC1C(Nc2ncnc3[nH]ncc23)CCCN1C(=O)CNc1ccccc1S(=O)(=O)c1ccccc1 (stereo not drawn) , state its measured pIC50. > 7.00

Hello, please tell me recorded pIC50 for this one: C=CC(=O)N1CC[C@H](Cn2nc(-c3ccc(Oc4ccccc4)cc3)c3cncnc32)C1 > 7.00

Respond only with pIC50 recorded for Cc1cc(-c2ccnc(Nc3cnn(C)c3)n2)ccc1CN1CCc2c(cnn2C(C)(C)C)C1=O > 8.00

Supply pIC50 value. Item: C=CC(=O)N1CC[C@]2(C1)C[C@H](n1c(NC(=O)c3ccc(-c4cccc(NC)n4)s3)nc3ccccc31)C2 8.81

Please look at this molecule and report its pIC50: C=CC(=O)N1CCC[C@@H](n2nc(-c3ccc(C(=O)Nc4ccccn4)cc3)c3c(N)ncc(Nc4ccccc4)c32)C1 8.60

Fill in reported pIC50 for this entry: CCCS(=O)(=O)Nc1ccc(F)c(C(=O)c2c[nH]c3ncc(-c4cnn(C)c4)cc23)c1Cl ≥ 5.00

Write down pIC50 measured for item O=C(c1ccc(O)cc1)c1c[nH]c2ncc(-c3cccs3)cc12 ≥ 5.00

Answer with the recorded pIC50 for the molecule listed here: COc1cc(-c2cn([C@@H]3CCCN(C(=O)/C=C/CN(C)C)C3)c3c(=O)[nH]nc(N)c23)ccc1Oc1ccc(Cl)c(Cl)c1 6.00 to 8.00

Entry Cn1cc(Nc2nccc(-c3ccc4c(c3)NCCC4NC(=O)c3cnc(C(C)(C)C)s3)n2)cn1 (stereo not drawn) needs its pIC50 filled in; supply it. > 8.00

Quick one: give measured pIC50 for Cc1cc(-c2cc(Nc3cc4n(n3)CCN(C)C4C)ncn2)ccc1CNC(=O)c1cnn(C(C)(C)C)c1 (stereo not drawn) > 8.00

Assign pIC50 to the following record: C=CC(=O)N1CC[C@H](Nc2cncc(-c3cnc(Nc4cccc(OC(F)F)c4)nc3)n2)C1 8.25

Return the recorded pIC50 value; entry: COCCN(C)C/C=C/C(=O)N1CC[C@@H](n2c(C)c(-c3ccc(Oc4ccccc4)cc3)c3c(N)ncnc32)C1 > 7.00

Note down pIC50 recorded for CC(C)(C)c1cc(F)c2c(=O)n(-c3cccc(-n4cc(C(N)=O)c5cccnc54)c3CO)ncc2c1 8.49

Give pIC50 for the following molecule: NC(=O)c1nnc2c(-c3cnc4cc[nH]c4c3)cccc2c1N 6.50

Give the reported pIC50 for this molecule. N#CN1CCC[C@@H](n2cc(-c3ccc(Oc4ccccc4)c(F)c3)c3c(N)n[nH]c(=O)c32)C1 6.00 to 8.00

Could you please provide reported pIC50 for C=CC(=O)N1CCC[C@H](Nc2cc(C)cc(Nc3ncc(C)s3)n2)C1 ? Thanks! 8.68
